- Test system: SK-OV-3 ovarian
- assay_name: NCI-60 one-dose screen, 48 h (100 = growth as untreated, 0 = no growth, -100 = all killed)
- assay_conditions: 10 µM unless noted
- Protocol: Growth inhibition of the SK-OV-3 human tumor cell line is measured as a screen for anti-cancer activity. Cells are grown in 96 well plates and exposed to the test compound for 48 hours. Compounds are tested at a single concentration, which is 10^-5 M for most compounds. The reported endpoint is percent growth (GI% or GIPRCNT), where numbers from 0 - 100% represent growth inhibition, and numbers from -100% - 0 represent cell death. For example, a value of 40 represents 60% growth inhibition. […]
This is part of a sample that, as a whole, favours compounds with a hit. Of some 83,000 tested, about 20% had one in any assay.
observed_property: growth (%)
API: value field is a number in %; no unit string.

# example entries with known answers
[[record]]
compound = "Clc1ccc(-c2ccc(CNCC3CCNCC3)o2)c(-c2ccccc2)c1"
observed_property = "growth"
measured_result = 45.4

[[record]]
compound = "Cc1cc2c(C(=O)NCC#N)cccc2n1-c1nc2c(c(NCc3ccccc3)n1)CCCC2"
observed_property = "growth"
measured_result = -6.94

[[record]]
compound = "O=C1Nc2ccc(F)cc2/C1=C\\c1c(-c2ccccc2)nc2ccccn12"
observed_property = "growth"
measured_result = 80.7

[[record]]
compound = "CC1=C(C(=O)/C=C/c2ccc(N(C)C)cc2)C(c2ccccc2)NC(=S)N1 (centres undefined)"
observed_property = "growth"
measured_result = 111

[[record]]
compound = "COCc1cnccc1NC1CCCCCC1"
observed_property = "growth"
measured_result = 111

[[record]]
compound = "N#Cc1c(NC(=O)NCc2ccccc2)sc2c1CCCCC2"
observed_property = "growth"
measured_result = 25


The reported SK-OV-3 ovarian growth of Cc1ccc(C(=O)/C(=C\c2ccc([N+](=O)[O-])cc2)S(=O)Cc2ccc(Cl)cc2)cc1 (centres undefined) is 106

// returns growth for COc1ccc(-c2nc([C@@H](C)Sc3nc(N)cc(N)n3)c(C)s2)cc1OCCN1CCOCC1 with SK-OV-3 ovarian; value = 131

Test item Cc1cccc(C)c1N=c1oc2ccc(Cl)cc2nc1-c1ccccc1O ; SK-OV-3 ovarian; reported growth was 92.8

Value (growth, SK-OV-3 ovarian) for record COc1c(Cl)c2c(c(OC)c1OC)-c1ccc(SC)c(=O)cc1[C@@H](NC(=O)OCC(F)(F)F)CC2 = 48.2

Note to self: growth of CC1=CCC(OC(=O)C(C)(O)CCC(O)(C(=O)OC2(C)C=CC(O)(C(C)C)CC2)C(C)C)(C(C)C)CC1 (centres undefined) with SK-OV-3 ovarian was 105

Query O=c1ccc(-c2nc(N3CCOCC3)c3ccccc3n2)c[nH]1 on SK-OV-3 ovarian; growth returned: 105

====

- Tested on: HT29 colon
- assay_name: NCI-60 one-dose screen, 48 h (100 = growth as untreated, 0 = no growth, -100 = all killed)
- assay_conditions: 10 µM unless noted
Compounds without any hit were thinned out: in the full panel of roughly 83,000, 20% have a hit.
So basically: is growth under 20%? Then class 1. Not under? Then class 0.

Some entries whose results are on file:
[[record]]
compound = "CN1C(N2CCN(S(=O)(=O)c3ccccc3)CC2)=NS(=O)(=O)c2ccccc21"
measurement_target = "HT29 colon"
assigned_label = "class 0"

[[record]]
compound = "O=C(CCN1CCCC1)Nc1ccc2c(NCCc3ccccc3)c3ccccc3nc2c1"
measurement_target = "HT29 colon"
assigned_label = "class 1"

[[record]]
compound = "c1ccc2cc(Cn3c(-c4cccc5ccccc45)[n+](Cc4ccc5ccccc5c4)c4c5ccccc5c5ccccc5c43)ccc2c1"
measurement_target = "HT29 colon"
assigned_label = "class 1"

[[record]]
compound = "COc1cc(C2C3=C(COC3=O)N(CCO)c3cc4c(cc32)CCC4)cc(OC)c1OC (stereo not given)"
measurement_target = "HT29 colon"
assigned_label = "class 1"

[[record]]
compound = "Fc1ccc(-c2cn3c(nc4ccccc43)c(-c3ccccc3)n2)cc1"
measurement_target = "HT29 colon"
assigned_label = "class 0"


Query: Does the reported growth of the following compound sit strictly below 20%? CCNC(=O)Oc1ccc(/C(=C(\C)c2ccccc2)c2ccc(OCCN3CCCCC3)cc2)cc1
Response: class 1

Query: I'd appreciate it if you could check whether Cc1cccc(C)c1N=c1oc2ccc(Cl)cc2nc1-c1ccccc1O has growth smaller than 20%.
Response: class 0

Query: Consider N/C(=N\C(N)=N\c1nc2ccccc2s1)c1cnccn1 . Does its growth lie strictly below 20%?
Response: class 0

Query: Item CC(Sc1nc2ccccc2c(=O)n1CCc1ccc(S(N)(=O)=O)cc1)C(=O)Nc1ccc(Cl)cc1 (stereo not given) : growth beneath 20%, strictly?
Response: class 0

Query: In the record for N/C(=N\C(N)=N\c1nc2ccccc2s1)c1ccnc(Br)c1 , is growth less than 20%?
Response: class 1

====

- Tested on: SK-MEL-28 melanoma
- assay_name: NCI-60 one-dose screen, 48 h (100 = growth as untreated, 0 = no growth, -100 = all killed)
- assay_conditions: 10 µM unless noted
The panel holds about 83,000 compounds, 20% with a hit somewhere; the sample as a whole holds those more often.
Record rule met whenever growth is at 80% or higher; record rule not met when lower.

[[record]]
compound = "CCOC(=O)c1cc(C(=O)c2ccc(OC)c(OC)c2)n2ccc(/C=C/c3cc[n+](CC(=O)c4ccc(OC)c(OC)c4)cc3)cc12"
assigned_label = "rule met"

[[record]]
compound = "CCCCCCCCO/N=C\\c1c2c(O)c3c(O)c(C)c4c(c3c1O)C(=O)C(C)(O/C=C\\C(OC)C(C)C(OC(C)=O)C(C)C(O)C(C)C(O)C(C)/C=C\\C=C(\\C)C(=O)N2)O4 (stereo unspecified)"
assigned_label = "rule not met"

[[record]]
compound = "CC1=C(C(=O)/C=C/c2ccc(N(C)C)cc2)C(c2ccccc2)NC(=S)N1 (stereo unspecified)"
assigned_label = "rule met"

[[record]]
compound = "O=S(=O)(NCCNc1nccc(-c2c(-c3cccc(F)c3)nc3sccn23)n1)c1ccc(Br)cc1"
assigned_label = "rule not met"


Query: Entry N#CC1=C(N)Oc2c(cnn2-c2ccc([N+](=O)[O-])cc2[N+](=O)[O-])C1c1ccccc1 (stereo unspecified) : is its growth no less than 80%?
Response: rule met

Query: Answer whether growth of COc1cc2c(c(OC)c1OC)-c1ccc(NNC(=S)N(Cc3cccc(C[N+](Cc4cccc(CNC56CC7CC(CC(C7)C5)C6)c4)(Cc4cccc(CNC56CC7CC(CC(C7)C5)C6)c4)Cc4cccc(CN(C(=S)NNc5ccc6c(cc5=O)[C@@H](NC(C)=O)CCc5cc(OC)c(OC)c(OC)c5-6)C56CC7CC(CC(C7)C5)C6)c4)c3)C34CC5CC(CC(C5)C3)C4)c(=O)cc1[C@@H](NC(C)=O)CC2 (stereo partly specified) is greater than or equal to 80%.
Response: rule not met

Query: Tell me whether growth is at least 80% here: C/C(=N\NC(=O)CSc1nc2ccccc2c(=O)n1Cc1ccc(S(N)(=O)=O)cc1)c1ccc(F)cc1
Response: rule met

Query: Check this compound for growth at or above 80%: O=C1c2ccccc2C(=O)c2c([N+](=O)[O-])ccc(Cl)c21
Response: rule met

Query: # check: growth of COc1ccc(C(=O)Cn2c(C(=O)c3ccccc3)nc3ccccc32)cc1 is greater than or equal to 80%
Response: rule met

Query: Quick check, growth >= 80%? Cn1cc(-c2nc(-c3c[nH]c4c(Cl)nccc34)cs2)c2cc(Br)ccc21
Response: rule met

Query: I'd appreciate it if you could say whether COc1cc2c(=O)n(CCCN(C)C)c3c4cc5c(cc4ccc3c2cc1OC)OCO5 has growth at least equal to 80%.
Response: rule met

Query: Please check the record O=C(Cn1c(C(=O)c2ccccc2)nc2ccccc21)c1ccc(F)cc1 and state if its growth is at or above 80%.
Response: rule not met

====

- Tested on: K-562 leukemia
- assay_name: NCI-60 one-dose screen, 48 h
- assay_conditions: 10 µM unless noted
Compounds without any hit were thinned out: in the full panel of roughly 83,000, 20% have a hit. Calls of active or inactive are those of the source. How the source made its calls: active means growth percent below 10; inactive means the rest.
Parameter call: string, one of Y (active), N (inactive)

[[record]]
molecule = "COc1ccccc1NS(=O)(=O)c1cccc(C(=O)Nc2ccc(Br)cc2)c1"
measurement_target = "K-562 leukemia"
assigned_label = "N"

[[record]]
molecule = "CC(=O)O[C@@H]1C2CCC3C(CC[C@@]4(C)C3CC[C@@H]4C(C)N(C)C)[C@@]2(C)CC[C@@H]1NC(=O)C=C(C)C (some centres not stated)"
measurement_target = "K-562 leukemia"
assigned_label = "Y"

[[record]]
molecule = "NCCCCCCNc1cc(-c2cccc(OC(F)(F)F)c2)nc2ccc(N3CCCC3)cc12"
measurement_target = "K-562 leukemia"
assigned_label = "Y"

[[record]]
molecule = "CCOC(=O)c1cc(C(=O)c2cc(OC)cc(OC)c2)n2ccc3ccccc3c12"
measurement_target = "K-562 leukemia"
assigned_label = "N"

[[record]]
molecule = "O=S(=O)(NCCNc1nccc(-c2c(-c3cccc(O)c3)nc3occn23)n1)c1ccc(Cl)cc1"
measurement_target = "K-562 leukemia"
assigned_label = "N"


Query: Tell me the assay call for Cc1nn(-c2ccccc2)c(Oc2c(Cl)cccc2Cl)c1/C=N/N=c1\sc2ccccc2n1C please.
Response: N

Query: For CCOC(=O)c1cc(C(=O)c2ccc(OC)cc2)n2ccc(/C=C/c3cc[n+](CC(=O)c4ccc(OC)cc4)cc3)cc12 , which call appears in the assay record?
Response: Y

Query: Just curious, what result did CCOC(=O)c1cc(C#N)n2ccc3ccccc3c12 get here?
Response: N

Query: Any idea what this test logged for Cc1nc(N)nc(N[C@@H](C)c2nc3cccc(NCc4ccc(C(=O)NO)cc4)c3c(=O)n2-c2ccccc2)n1 ?
Response: N

Query: Any idea what this test logged for C=C1C(=O)O[C@H]2[C@H]1CC/C(COC(=O)NCc1c[nH]c3ccc(Cl)cc13)=C\CC[C@@]1(C)O[C@@H]21 ?
Response: Y

Query: Call for entry C/C(=N\Nc1cc(C)nc2ccc(Br)cc12)c1ccc([N+](=O)[O-])cc1 :
Response: N

Query: Dear all, I need the recorded test outcome for CC(=O)c1ccc(NS(=O)(=O)c2cccc(C(=O)Nc3ccc(Br)cc3)c2)cc1 , thank you.
Response: N

Query: Hello, I am checking results. What call was entered for CN[C@@H](C)C(=O)N[C@H]1CCS[C@H]2CC(C)(C)[C@@H](C(=O)N[C@H]3c4ccccc4C[C@H]3OCC#CC#CCO[C@@H]3Cc4ccccc4[C@@H]3NC(=O)[C@H]3N4C(=O)[C@@H](NC(=O)[C@H](C)NC)CCS[C@H]4CC3(C)C)N2C1=O ?
Response: N

Query: Given CCCCCC(=O)Oc1ccc(/C(=C(/C)Cc2ccc(OC)cc2)c2ccc(OCCCN(C)C)cc2)cc1 , state the outcome it received in this test.
Response: Y

Query: Please let me know the test result on file for COc1ccc(C(=O)c2cc(C)c(OC)c(C)c2)c(OC)c1N(C(=O)CCl)C(=O)CCl .
Response: Y

Query: So what was the verdict on COc1ccc(/C=N/NC(=O)c2cnn3c2NC(c2ccccc2)C3)cc1OC (configuration not stated) in this test?
Response: N

Query: How did this test come out for O=C(NCCc1ccccc1)Nc1ccc2cc3ccc(NC(=O)NCCc4ccccc4)cc3nc2c1 ?
Response: Y
